Biological target: PCSK9 (Homo sapiens, UniProt Q8NBP7, G670E/V474I)
Sequence (Q8NBP7 with tags, fused parts or gaps V474I/G670E): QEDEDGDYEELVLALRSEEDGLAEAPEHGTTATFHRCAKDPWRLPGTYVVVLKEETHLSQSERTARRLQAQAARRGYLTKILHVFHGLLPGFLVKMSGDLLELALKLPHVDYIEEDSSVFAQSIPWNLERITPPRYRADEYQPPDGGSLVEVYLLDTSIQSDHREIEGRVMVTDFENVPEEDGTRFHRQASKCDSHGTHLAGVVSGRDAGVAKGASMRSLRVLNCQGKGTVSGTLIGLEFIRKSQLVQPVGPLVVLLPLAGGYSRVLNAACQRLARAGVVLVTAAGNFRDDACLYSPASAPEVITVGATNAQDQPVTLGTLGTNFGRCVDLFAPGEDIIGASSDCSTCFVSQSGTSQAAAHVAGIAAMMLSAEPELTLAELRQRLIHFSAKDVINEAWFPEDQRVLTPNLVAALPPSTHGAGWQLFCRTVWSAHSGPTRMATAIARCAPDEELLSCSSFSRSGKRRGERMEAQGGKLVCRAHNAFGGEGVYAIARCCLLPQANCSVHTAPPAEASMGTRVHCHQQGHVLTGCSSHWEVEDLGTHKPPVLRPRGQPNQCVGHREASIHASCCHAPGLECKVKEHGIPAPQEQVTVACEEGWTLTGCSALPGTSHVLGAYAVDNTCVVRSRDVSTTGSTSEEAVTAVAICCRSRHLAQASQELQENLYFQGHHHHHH
Assay: biochemical
Measured Endpoint: pIC50
Note on pIC50: it is the negative log10 of concentration, concentration in mol/L.

// below: answered compounds
Cn1c(=O)n(-c2ccc(N[C@H]3CC[C@H](Nc4cnc(Cl)cn4)C3)nc2)c2ccccc21 ... 8.77
Cc1cnc(N[C@H]2CC[C@H](Nc3ccc(N4CC(=O)N(C)C4=O)cn3)C2)cn1 ... 7.47
Cc1cnc(N[C@H]2CC[C@H](Nc3ccc(-n4cc(-c5nnn[nH]5)ccc4=O)cn3)C2)cn1 ... 8.27
Cn1c(=O)n(-c2ccc(N[C@H]3CC[C@H](Nc4cnc(C5CC5)cn4)C3)nc2)c2ncccc21 ... 8.19
Cc1cnc(N[C@H]2CC[C@H](Nc3ccc(N4C(=O)CN(C)C4=O)cn3)C2)cn1 ... 7.24
Cc1cnc(N[C@H]2CC[C@H](Nc3ccc(-n4c(=O)[nH]c5ccccc54)cn3)C2)cn1 ... 8.52

**Q:** What value of pIC50 has been recorded for this entry: Cc1cnc(N[C@H]2CC[C@H](Nc3ccc(-n4cc(-c5cn[nH]c5)ccc4=O)cn3)C2)cn1
**A:** 8.07

**Q:** What value of pIC50 has been recorded for this entry: O=C1[C@@H]2OCC[C@@H]2CCN1c1ccc(N[C@H]2CC[C@H](Nc3cnc(OC(F)F)cn3)C2)nc1
**A:** 5.79

**Q:** Please give the measured pIC50 for this compound: Cc1cnc(N[C@H]2CC[C@H](Nc3ccc(-n4ccccc4=O)cn3)C2)cn1
**A:** 6.98

**Q:** Param item = Cc1ncc(N[C@H]2CC[C@H](Nc3ccc(-n4cccc(Cl)c4=O)cn3)C2)nc1C ; retrieve measured pIC50.
**A:** 8.28

**Q:** For the compound shown here, O=c1ccc2ccccc2n1-c1ccc(N[C@H]2CC[C@H](Nc3cnc(Cl)cn3)C2)nc1 , give the reported pIC50.
**A:** 8.70

**Q:** Could you share which pIC50 value was measured for Cc1cnc(N[C@H]2CC[C@H](Nc3ccc(-n4cccc(-c5c[nH]nn5)c4=O)cn3)C2)cn1 ?
**A:** 8.15

**Q:** pIC50 lookup needed for Cc1cnc(N[C@H]2CC[C@H](Nc3ccc(-n4nccc(C#N)c4=O)cn3)C2)cn1 , thanks.
**A:** 7.89
